System: OVCAR-3
Assay: NCI tumour cell line growth inhibition, 48 h
The source made the active and inactive calls. No stated cut-off is given here; in the data, active = GI50 up to about 1.1 µM and inactive = higher.
measurement.type: GI50

Here's what some known entries look like.
{"molecule": "Cc1c(/C=N/N=C/c2[nH]c(C(=O)OC(C)(C)C)c(C)c2C)[nH]c(C(=O)OC(C)(C)C)c1C", "experimental.system": "OVCAR-3", "GI50": "> 100 µM (inactive)"}
{"molecule": "COc1ccc(C(OCC2OC(n3cc(C)c(=O)[nH]c3=O)CC2n2cc(Cn3cc(F)c(=O)[nH]c3=O)nn2)(c2ccccc2)c2ccccc2)cc1 (stereo not given)", "experimental.system": "OVCAR-3", "GI50": "5.26 µM (inactive)"}
{"molecule": "O=C(O)c1oc(C(=O)O)c(C(=O)O)c1C(=O)O", "experimental.system": "OVCAR-3", "GI50": "> 100 µM (inactive)"}
{"molecule": "CC1=NN2C(=N)/C(=C/c3ccc(F)cc3)C(=O)N=C2S1", "experimental.system": "OVCAR-3", "GI50": "> 100 µM (inactive)"}
{"molecule": "O=[PH](O)c1ccccn1", "experimental.system": "OVCAR-3", "GI50": "> 100 µM (inactive)"}

Recorded GI50 of "COc1ccc(C(=O)/C=C/c2cccnc2)cc1OC" , please.
3.4 µM (inactive)

Entry "CCOC(=O)c1ccc(C(=O)n2ccnc2)[nH]1" : reported GI50 = ?
> 100 µM (inactive)
